# Measurement notes: Half life in dog at 1 mg/kg, iv or po
# Type: ADME, organism-based, Canis lupus familiaris
# Particulars: in vivo

Chemical structure | Unit abbreviation | half-life
CC(C)(O)[C@H](F)CN1Cc2cc(NC(=O)c3cnn4cccnc34)c(N3CCOCC3)cc2C1=O | h | 4.1

====

# Measurement notes: AUC (infinity) in cynomolgus monkey at 1 mg/kg, iv or po
# Type: ADME, organism-based, Macaca fascicularis
# Particulars: in vivo
Measurement name: AUC(0-inf) (µM·h)

Chemical structure | Measurement name | Test value
CC(C)(O)[C@H](F)CN1Cc2cc(NC(=O)c3cnn4cccnc34)c(N3CCOCC3)cc2C1=O | AUC(0-inf) | 2.2
